test system: LoVo Colon cell line; experiment: Cytotoxicity assay using LoVo colon cell line (SRB, IC50); format: cell-based; conditions: Homo sapiens, 96 h; LoVo colon cells, 4 days at 37° C., SRB; read-out: Inhibition of LoVo
pIC50: −log10 of the molar value.
MEASURED_METRIC: pIC50

- CCCCCNC(=O)Nc1cccc(-c2ccnc3c(C(=O)c4cccs4)cnn23)c1: > 7.00

Ask | Consider the compound `COCCN(CCOC)C(=O)Nc1cccc(-c2ccnc3c(C(=O)c4cccs4)cnn23)c1` . State its measured pIC50.
Reply | 4.70 to 6.00

Ask | Consider the compound `O=C(c1cccs1)c1cnn2c(-c3cccc(NC(=O)N4CCOCC4)c3)ccnc12` . State its measured pIC50.
Reply | 6.00 to 7.00

---

Overview of reported melting point across a group of compounds:

Known results for compounds:
* CC(C)NC(=NC#N)Nc1cccc(-c2ccnc3c(C(=O)c4cccs4)cnn23)c1 | 240 to 241 °C
* CC(C)CC(=O)Nc1cccc(-c2ccnc3c(-c4cccc(N)c4)cnn23)c1 | 173 to 175 °C
* O=C(c1cccs1)c1cnn2c(Cl)ccnc12 | 148 to 150 °C
* O=C(c1cccs1)c1cnn2c(-c3cccc(NCc4ccco4)c3)ccnc12 | 124 to 128 °C
* CCCCNC(=O)Nc1cccc(-c2ccnc3c(C(=O)c4cccs4)cnn23)c1 | 158 to 160 °C

Ask | Consider the compound `O=C(O)c1ccccc1C(=O)Nc1cccc(-c2ccnc3c(C(=O)c4cccs4)cnn23)c1` . State its measured melting point.
Reply | 215 to 216 °C

Ask | Consider the compound `O=C(Nc1cccc(-c2ccnc3c(C(=O)c4cccs4)cnn23)c1)c1ccncc1` . State its measured melting point.
Reply | 212 to 215 °C

Ask | Consider the compound `C/C=C(\C)CNc1cccc(-c2ccnc3c(C(=O)c4cccs4)cnn23)c1` . State its measured melting point.
Reply | 118 to 120 °C

Ask | Consider the compound `O=C(Nc1cccc(-c2ccnc3c(C(=O)c4cccs4)cnn23)c1)OCCCN1CCS(=O)(=O)CC1` . State its measured melting point.
Reply | 148 to 159 °C

Ask | Consider the compound `O=C(Nc1cccc(-c2ccnc3c(C(=O)c4cccs4)cnn23)c1)c1ccccc1F` . State its measured melting point.
Reply | 190 to 191 °C

Ask | Consider the compound `C=C(C)CNc1cccc(-c2ccnc3c(C(=O)c4cccs4)cnn23)c1` . State its measured melting point.
Reply | 104 to 106 °C

Ask | Consider the compound `C=C(CC)CNc1cccc(-c2ccnc3c(C(=O)c4cccs4)cnn23)c1` . State its measured melting point.
Reply | 79 to 82 °C

Ask | Consider the compound `O=C(c1ccco1)c1cnn2c(-c3cccc(-n4cccc4)c3)ccnc12` . State its measured melting point.
Reply | 204 to 206 °C

---

test system: 80S14 (p21-deficient) cells; assay: Determination of selectivity of compounds for p21-/- cells: IC50 in 80S14 cells (SRB); assay type: cell-based, human; conditions: Homo sapiens, 120 h; 80S14 (p21-deficient) cells, 5 days at 37° C., SRB; read-out: IC50 for 80S14
pIC50: −log10 of the molar value.
MEASURED_METRIC: pIC50

Known results for compounds:
* O=C(Nc1cccc(-c2ccnc3c(C(=O)c4cccs4)cnn23)c1)c1ccc(Cl)cc1 | 5.00 to 6.00
* O=C(c1cccs1)c1cnn2c(-c3cccc(NC(=O)[C@@H]4CCCN4C(=O)C(F)(F)F)c3)ccnc12 | 5.00 to 6.00
* O=C(Cc1cccs1)Nc1cccc(-c2ccnc3c(C(=O)c4cccs4)cnn23)c1 | > 6.00

Moving on to the next compound.
Ask | Consider the compound `O=C(c1cccs1)c1cnn2c(-c3cccc(NC(=O)C45CC6CC(CC(C6)C4)C5)c3)ccnc12` . State its measured pIC50.
Reply | > 6.00

---

tested on: 80S14 (p21-deficient) cells; test: Determination of selectivity of compounds for p21-/- cells: IC50 in 80S14 cells (SRB); format: cell-based, human; details: Homo sapiens, 120 h; 80S14 (p21-deficient) cells, 5 days at 37° C., SRB; read-out: IC50 for 80S14
pIC50: −log10 of the molar value.
Overview of reported pIC50 across a group of compounds:

Known results for compounds:
• C[C@H](NC(=O)Nc1cccc(-c2ccnc3c(C(=O)c4cccs4)cnn23)c1)c1ccccc1 [Example 9] = 5.00 to 6.00
• CC(C)(C)C(=O)NCC(=O)Nc1cccc(-c2ccnc3c(C(=O)c4cccs4)cnn23)c1 [Example 114] = 5.00 to 6.00
• O=C(CNC(=O)C12CC3CC(CC(C3)C1)C2)Nc1cccc(-c2ccnc3c(C(=O)c4cccs4)cnn23)c1 [Example 116] = 5.00 to 6.00
• O=C(c1cccs1)c1cnn2c(-c3cccc(NC(=O)N4CCOCC4)c3)ccnc12 [Example 131] = 5.00 to 6.00

Ask | Specify the recorded pIC50 for C/C=C/C(=O)Nc1cccc(-c2ccnc3c(C(=O)c4cccs4)cnn23)c1 [Example 129] , system: 80S14 (p21-deficient) cells.
Reply | 5.00 to 6.00

Ask | Specify the recorded pIC50 for C#CCCC(=O)Nc1cccc(-c2ccnc3c(C(=O)c4cccs4)cnn23)c1 [Example 45] , system: 80S14 (p21-deficient) cells.
Reply | > 6.00

Ask | Specify the recorded pIC50 for CCCC(Cl)CC(=O)Nc1cccc(-c2ccnc3c(C(=O)c4cccs4)cnn23)c1 (stereo not drawn) [Example 121] , system: 80S14 (p21-deficient) cells.
Reply | > 6.00

---

MEASURED_METRIC: melting point

* CC/C=C/CNc1cccc(-c2ccnc3c(C(=O)c4cccs4)cnn23)c1 | 72 to 75 °C
* CC(C)NC(=N)Nc1cccc(-c2ccnc3c(C(=O)c4cccs4)cnn23)c1 | > 200 °C
* COc1ccccc1/C=C/CNc1cccc(-c2ccnc3c(C(=O)c4cccs4)cnn23)c1 | 128 to 131 °C
* CCC(C)C(C)CNc1cccc(-c2ccnc3c(C(=O)c4cccs4)cnn23)c1 (centres unmarked) | 84 to 86 °C

Ask | Consider the compound `O=C(Nc1cccc(-c2ccnc3c(C(=O)c4cccs4)cnn23)c1)OCC(Cl)(Cl)Cl` . State its measured melting point.
Reply | 197 to 200 °C

---

Tested on: 80S14 (p21-deficient) cells
Assay: Determination of selectivity of compounds for p21-/- cells: IC50 in 80S14 cells (SRB)
Format: cell-based, human
Conditions: Homo sapiens, 120 h; 80S14 (p21-deficient) cells, 5 days at 37° C., SRB; read-out: IC50 for 80S14
Protocol: • 1. 80S14 (p21-deficient) cells were cultured in RPMI 1640 medium (Gibco/Invitrogen Life technologies) supplemented with 10% fetal bovine serum (FBS, Gibco) and 10 μg/ml gentamycin (Gibco). Cells were maintained at 37° C. under 7% CO2. • 2. […] Absorbance was measured at 540 nm. • 10. The percentage of cells surviving drug treatment relative to control wells (no drug) was determined. • 11. The difference in % cell survival between the two cell lines was calculated. • 12. […]
pIC50: −log10 of the molar value.
MEASURED_METRIC: pIC50

* O=C(c1cccs1)c1cnn2c(-c3cccc(NC(=O)[C@@H]4CCCN4)c3)ccnc12 [Example 67] | 5.00 to 6.00
* CN(C)CCNC(=O)Nc1cccc(-c2ccnc3c(C(=O)c4cccs4)cnn23)c1 [Example 134] | 4.30 to 5.00

Ask | Consider the molecule CC(=O)OCC(=O)Nc1cccc(-c2ccnc3c(C(=O)c4cccs4)cnn23)c1 [Example 48] . State its measured pIC50.
Reply | 5.00 to 6.00

Ask | Consider the molecule O=C(Nc1cccc(-c2ccnc3c(C(=O)c4cccs4)cnn23)c1)OCC(Cl)(Cl)Cl [Example 12] . State its measured pIC50.
Reply | > 6.00

Ask | Consider the molecule N[C@H](C(=O)Nc1cccc(-c2ccnc3c(C(=O)c4cccs4)cnn23)c1)C1CCCCC1 [Example 68] . State its measured pIC50.
Reply | 5.00 to 6.00
